// endpoint IC50 / system Human cytomegalovirus DNA polymerase (Human cytomegalovirus, UniProt P08546)
readout: IC50 (nM)

Examples from the recorded data:
>>> measuredvalue("CC(C1CC(F)(F)C(=O)N1)N1Cc2c(C(=O)NCc3ccc(Cl)cc3)nn(C)c2C1 (stereo not drawn) [Compound 85]")
1050
>>> measuredvalue("C=CC[C@]1(CN2Cc3c(C(=O)NCc4ccc(Cl)cc4)nn(C)c3C2)CCC(=O)N1")
144
>>> measuredvalue("O=C1CC[C@H](CN2Cc3c(C(=O)NCc4ccc(Cl)cc4)nn(CCC4CCOC4)c3C2)N1 (stereo partly drawn)")
34.6
>>> measuredvalue("O=C1CC[C@H](CN2Cc3c(C(=O)NCc4ccc(Cl)cc4)nn(CC4CCO4)c3C2)N1 (stereo partly drawn)")
54.9
>>> measuredvalue("C[C@@H]1c2c(C(=O)NCc3ccc(Cl)cc3)nn(C)c2CN1C[C@H]1CCC(=O)N1 [Compound 126]")
522

1 = CC1(Cn2nc(C(=O)NCc3ccc(Cl)cc3)c3c2CN(C[C@H]2CCC(=O)N2)C3)COC1
2 = CCC(C1CCC(=O)N1)N1Cc2c(C(=O)NCc3ccc(Cl)cc3)nn(C)c2C1 (stereo not drawn) [Compound 91]
3 = O=C1CC[C@H](CN2Cc3c(C(=O)NCc4ccc(Cl)cc4)nn(Cc4nccs4)c3C2)N1
4 = Cn1nccc1-n1nc(C(=O)NCc2ccc(Cl)cc2)c2c1CN(C[C@H]1CCC(=O)N1)C2
5 = O=C1CC[C@H](CN2Cc3c(C(=O)NCc4ccc(Cl)cc4)nn(-c4ncc(CO)s4)c3C2)N1
Arrange the 5 molecules from largest to smallest IC50. Kindly provide the labels arranged according to the requested ordering. 2, 1, 4, 3, 5
(2: 8610 nM, 1: 245 nM, 4: 148 nM, 3: 69.7 nM, 5: 19.2 nM)

1 = CN(CCn1nc(C(=O)NCc2ccc(Cl)cc2)c2c1CN(Cc1ccncc1F)C2)C(=O)C1CCC1
2 = O=C1CC[C@H](CN2Cc3c(C(=O)NCc4ccc(Cl)cc4)nn(-c4ncc5cnccn45)c3C2)N1
3 = O=C1CC[C@@H](CN2Cc3c(C(=O)NCc4ccc(Cl)cc4)nn(C(F)F)c3C2)N1 [Compound 45]
Hey, quick one: sort these by IC50, low to high? Kindly provide the labels arranged according to the requested ordering. 2, 3, 1
(2: 18.5 nM, 3: 37.8 nM, 1: 123 nM)

---

Molecular target: varicella zoster virus DNA polymerase (Varicella-zoster virus)
Sequence (P09252 whole entry): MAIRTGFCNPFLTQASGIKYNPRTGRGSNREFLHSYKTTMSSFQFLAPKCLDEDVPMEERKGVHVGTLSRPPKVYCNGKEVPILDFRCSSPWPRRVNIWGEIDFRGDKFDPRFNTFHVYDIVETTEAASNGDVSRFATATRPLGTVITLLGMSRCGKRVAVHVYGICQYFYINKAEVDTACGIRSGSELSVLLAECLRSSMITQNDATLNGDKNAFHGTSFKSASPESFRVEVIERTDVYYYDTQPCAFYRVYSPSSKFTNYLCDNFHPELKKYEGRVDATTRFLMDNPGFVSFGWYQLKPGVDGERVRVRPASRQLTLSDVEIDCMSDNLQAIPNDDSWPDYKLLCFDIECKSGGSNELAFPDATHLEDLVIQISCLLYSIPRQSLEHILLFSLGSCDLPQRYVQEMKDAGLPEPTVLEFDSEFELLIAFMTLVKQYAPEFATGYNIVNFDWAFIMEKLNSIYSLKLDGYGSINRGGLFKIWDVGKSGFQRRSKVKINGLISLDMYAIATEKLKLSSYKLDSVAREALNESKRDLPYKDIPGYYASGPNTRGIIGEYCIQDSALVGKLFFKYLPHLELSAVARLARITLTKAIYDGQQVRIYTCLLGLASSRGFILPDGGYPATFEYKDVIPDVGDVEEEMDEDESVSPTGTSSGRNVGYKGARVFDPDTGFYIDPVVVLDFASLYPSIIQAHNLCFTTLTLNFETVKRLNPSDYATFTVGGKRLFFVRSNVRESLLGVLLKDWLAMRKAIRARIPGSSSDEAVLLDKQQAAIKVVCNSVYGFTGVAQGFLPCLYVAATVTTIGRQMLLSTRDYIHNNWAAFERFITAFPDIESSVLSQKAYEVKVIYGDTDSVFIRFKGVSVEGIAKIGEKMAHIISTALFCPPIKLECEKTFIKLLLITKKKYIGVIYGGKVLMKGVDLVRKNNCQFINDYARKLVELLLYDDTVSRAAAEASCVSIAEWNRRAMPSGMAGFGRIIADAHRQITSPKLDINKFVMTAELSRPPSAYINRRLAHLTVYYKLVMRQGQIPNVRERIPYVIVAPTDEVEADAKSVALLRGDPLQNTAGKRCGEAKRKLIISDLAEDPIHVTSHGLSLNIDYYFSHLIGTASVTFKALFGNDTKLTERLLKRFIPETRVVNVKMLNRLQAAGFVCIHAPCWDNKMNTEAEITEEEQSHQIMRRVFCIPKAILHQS
pIC50: −log10 of the molar value.
readout: pIC50

P = O=C1CC[C@H](CN2Cc3c(C(=O)NCc4ccc(Cl)cc4)nn(CC4(F)COC4)c3C2)N1
Q = O=C1CC[C@H](CC2Cc3c(C(=O)NCc4ccc(Cl)cc4)nn(C4CN(CC5CC5)C4)c3C2)N1 (single isomer, unassigned)
API: POST /compare with P and Q ; response names the item with higher pIC50. Label of pick, please. Q

a = CC(C)N1CC(n2nc(C(=O)NCc3ccc(Cl)cc3)c3c2CC(C[C@H]2CCC(=O)N2)C3)C1 (some centres unmarked)
b = CN(CCn1nc(C(=O)NCc2ccc(Cl)cc2)c2c1CN(C[C@H]1CCC(=O)N1)C2)C(=O)C1CCC1
Lab log: flag the item ( a or b ) with the smaller pIC50 figure. Label of pick, please. a

Data origin, for the record: patent US20240059693A1
